TARGET_SYSTEM: EP4 (Mus musculus)
Construct: expressed in transfected cells; host or cells: CHO cells (membrane fraction)
Sequence (P32240 whole entry): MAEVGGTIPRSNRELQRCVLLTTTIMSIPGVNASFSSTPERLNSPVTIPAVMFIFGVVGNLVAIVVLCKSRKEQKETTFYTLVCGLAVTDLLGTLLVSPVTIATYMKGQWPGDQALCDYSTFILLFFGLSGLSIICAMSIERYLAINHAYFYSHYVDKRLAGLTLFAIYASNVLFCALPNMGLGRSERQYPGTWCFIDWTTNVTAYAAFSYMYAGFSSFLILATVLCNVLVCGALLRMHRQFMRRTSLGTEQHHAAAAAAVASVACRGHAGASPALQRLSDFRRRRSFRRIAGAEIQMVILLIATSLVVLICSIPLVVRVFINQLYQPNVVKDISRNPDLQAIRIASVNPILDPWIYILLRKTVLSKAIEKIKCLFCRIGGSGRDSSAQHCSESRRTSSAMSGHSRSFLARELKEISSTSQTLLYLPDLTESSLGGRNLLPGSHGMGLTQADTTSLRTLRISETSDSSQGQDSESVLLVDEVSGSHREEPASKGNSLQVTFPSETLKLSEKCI
ASSAY_COMMENT: Binding assay using expression CHO cell of prostanoid receptor subtype, [3H]-PGE2 binding inhibition (EP4)
CONDITIONS_USED: membrane fraction of CHO cells expressing mouse EP4; [3H]-PGE2 2.5 nM; Ki=IC50/(1+([C]/Kd)); read-out: Dissociation Constant Ki (μM) EP4
OBSERVATION_TYPE: Ki (µM)

Past entries and their recorded results:
CCOCc1cccc(C[C@H](O)/C=C/[C@@H]2[C@@H](C/C=C\CCCC(=O)O)[C@H](Cl)C[C@H]2O)c1 [8 (6)] : 0.0015
COCc1cc(CC(O)/C=C/[C@@H]2[C@@H](C/C=C\CCCC(=O)O)[C@H](Cl)C[C@H]2O)ccc1O (stereo partly shown) [Example 4] : 0.0036

I: COCc1cccc(C[C@H](O)/C=C/[C@H]2CCC(=O)[C@@H]2C/C=C\CCCC(=O)O)c1 [2 (15)]
II: CCCOCc1cccc(CC(O)/C=C/[C@@H]2[C@@H](C/C=C\CCCC(=O)O)[C@H](F)C[C@H]2O)c1 (stereo partly shown) [4 (12)]
**Q:** Which of the two items, I and II , has the greater recorded Ki? Respond using the label that marks the chosen record.
**A:** II
(II: 0.0059 µM, I: 0.0026 µM)
